- targetUnderTest: human k-opioid receptor (kOR) (Homo sapiens)
- Construct: expressed in transfected cells; host or cells: RBL cells (membrane homogenates)
- Sequence (P41145 whole entry): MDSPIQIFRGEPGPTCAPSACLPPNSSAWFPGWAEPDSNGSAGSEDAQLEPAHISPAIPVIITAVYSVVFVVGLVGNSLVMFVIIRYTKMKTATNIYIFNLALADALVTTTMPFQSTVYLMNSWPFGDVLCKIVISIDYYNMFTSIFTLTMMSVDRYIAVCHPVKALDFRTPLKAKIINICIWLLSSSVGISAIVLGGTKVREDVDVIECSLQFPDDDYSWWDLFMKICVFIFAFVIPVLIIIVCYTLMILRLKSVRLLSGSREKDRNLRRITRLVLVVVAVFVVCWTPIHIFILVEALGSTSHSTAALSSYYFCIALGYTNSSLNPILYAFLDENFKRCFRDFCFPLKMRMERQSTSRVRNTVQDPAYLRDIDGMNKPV
- methodNotes: Human k-opioid (KOP) receptor (agonist radioligand [3H]U-69593) binding assay, transfected RBL cell membranes
- condition: @ 1 uM
Label rule, in plain words: KOR % Inh. @ 1 uM of 70% and up is yes, under 70% is no.

Reference set, count: 3
[[record]]
compoundstring = "O=C(c1c(-c2ccc(F)cc2)nn2ccccc12)N1CCC[C@H]1Cn1ccc(-c2ccc(F)cc2)n1"
grouplabel = "no"

[[record]]
compoundstring = "O=C(c1c(-c2ccccc2F)nn2c1COCC2)N1CCC[C@H]1Cn1ccc(-c2ccc(F)cc2)n1"
grouplabel = "yes"

[[record]]
compoundstring = "O=C(c1nn2c(c1-c1ccccn1)COCC2)N1CCC[C@H]1Cn1cc(-c2ccc(F)cn2)cn1"
grouplabel = "no"


In: Please indicate if the recorded KOR % Inh. @ 1 uM for "O=C(c1c(-c2ccccc2F)nc2ccccn12)N1CCC[C@H]1Cn1ccc(-c2ccc(F)cc2)n1" meets or exceeds 70%.
Out: yes

In: Please indicate if the recorded KOR % Inh. @ 1 uM for "O=C(c1c(-c2ccc(F)cc2)nc2ccccn12)N1CCC[C@H]1Cn1ccc(-c2ccc(F)cc2)n1" meets or exceeds 70%.
Out: yes

In: Please indicate if the recorded KOR % Inh. @ 1 uM for "O=C(c1c(-c2ccc(F)cc2)nn2ccccc12)N1CCC[C@H]1Cn1ccc(-c2ccc(C(F)(F)F)cc2)n1" meets or exceeds 70%.
Out: yes

In: Please indicate if the recorded KOR % Inh. @ 1 uM for "O=C(c1c(-c2ccccc2F)nn2ccccc12)N1CCC[C@H]1Cn1ccc(-c2ccc(F)cc2)n1" meets or exceeds 70%.
Out: yes

In: Please indicate if the recorded KOR % Inh. @ 1 uM for "O=C(c1c(-c2ccccc2)nn2ccccc12)N1CCC[C@H]1Cn1ccc(-c2ccc(C(F)(F)F)cc2)n1" meets or exceeds 70%.
Out: no

In: Please indicate if the recorded KOR % Inh. @ 1 uM for "O=C(c1c(-c2ccccc2)nn2c1COCC2)N1CCC[C@H]1Cn1ccc(-c2ccc(F)cc2)n1" meets or exceeds 70%.
Out: yes

In: Please indicate if the recorded KOR % Inh. @ 1 uM for "O=C(c1c(-c2ccccc2)nn2ccccc12)N1CCC[C@H]1Cn1ccc(-c2ccc(F)cc2)n1" meets or exceeds 70%.
Out: no

In: Please indicate if the recorded KOR % Inh. @ 1 uM for "O=C(c1c(-c2ccccc2F)nn2ccccc12)N1CCC[C@H]1Cn1ccc(-c2ccc(F)cn2)n1" meets or exceeds 70%.
Out: no

* * *

- targetUnderTest: Orexin type 1 (OX1R) receptor (Homo sapiens, UniProt O43613)
- Construct: expressed in transfected cells; host or cells: CHO cells (G418 selection)
- Sequence (O43613 whole entry): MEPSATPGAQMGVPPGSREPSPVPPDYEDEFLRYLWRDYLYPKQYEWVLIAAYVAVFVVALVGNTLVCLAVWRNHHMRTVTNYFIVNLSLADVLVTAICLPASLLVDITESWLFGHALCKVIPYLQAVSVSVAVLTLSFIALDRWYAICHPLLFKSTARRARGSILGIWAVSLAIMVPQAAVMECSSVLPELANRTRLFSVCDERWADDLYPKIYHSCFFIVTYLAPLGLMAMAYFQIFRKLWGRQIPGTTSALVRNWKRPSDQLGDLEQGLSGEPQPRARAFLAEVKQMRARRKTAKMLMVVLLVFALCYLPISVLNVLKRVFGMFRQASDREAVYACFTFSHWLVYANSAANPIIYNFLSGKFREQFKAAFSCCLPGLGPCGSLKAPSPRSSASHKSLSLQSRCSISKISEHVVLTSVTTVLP
- methodNotes: In vitro orexin antagonism assay: intracellular calcium measurement (FLIPR), orexin-A 3 nM as agonist
- Format: cell-based
- condition: second value of IC50/Kb cell
quantity: Kb (nM)
Give the value in nM but do not write nM after it.

[[record]]
molecule = "O=C(c1c(-c2ccccc2)nc2ccc(F)cn12)N1CCC[C@H]1Cn1cc(-c2ccccc2)cn1 [Example 75]"
unitname = "nM"
readoutvalue = 33

[[record]]
molecule = "O=C(c1c(-c2ccccc2F)nn2ccccc12)N1CCC[C@H]1Cn1cc(-c2ccc(F)cn2)cn1 [Example 82]"
unitname = "nM"
readoutvalue = 10

[[record]]
molecule = "C[C@@]1(COc2cnc(C(F)(F)F)cn2)CCCN1C(=O)c1nn2cccnc2c1-c1ccccc1 [Example 167]"
unitname = "nM"
readoutvalue = 69


In: State the measured Kb (Orexin type 1 (OX1R) receptor (Homo sapiens, UniProt O43613)) of O=C(c1nn2cccnc2c1-c1ccccn1)N1CCC[C@H]1COc1ccc(C(F)(F)F)cn1 [Example 190]
Out: 1
